target: UniProt:P29274; experiment: Radioligand binding assay, A2A ([3H]-NECA, HEK293 membranes); conditions: *Measured by radioligand binding
Sequence (P29274 whole entry): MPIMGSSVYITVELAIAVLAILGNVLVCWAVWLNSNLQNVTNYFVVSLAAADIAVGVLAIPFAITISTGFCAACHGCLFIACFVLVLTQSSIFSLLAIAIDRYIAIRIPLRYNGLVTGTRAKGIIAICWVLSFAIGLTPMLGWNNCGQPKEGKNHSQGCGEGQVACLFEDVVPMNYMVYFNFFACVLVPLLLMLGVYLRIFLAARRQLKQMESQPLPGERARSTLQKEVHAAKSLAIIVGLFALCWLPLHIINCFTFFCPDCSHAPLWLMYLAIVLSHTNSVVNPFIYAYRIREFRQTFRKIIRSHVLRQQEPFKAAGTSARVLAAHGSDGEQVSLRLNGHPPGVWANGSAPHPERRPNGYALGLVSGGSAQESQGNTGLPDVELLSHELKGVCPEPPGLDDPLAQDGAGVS
pEC50: −log10 of the molar value.
experimental readout: pEC50

q: Any idea what its pEC50 is? The compound is "Fc1ccccc1-c1nc(Nc2n[nH]c(C3CCC3)n2)sc1-c1ccncc1F"
a: < 5.00

###

biological target: human A3 receptor (Homo sapiens (Human), UniProt P0DMS8); test: Intracellular cAMP functional assay (HTRF), A3; assay type: cell-based; settings: HEK293 cells expressing recombinant human receptor
Sequence (P0DMS8 whole entry): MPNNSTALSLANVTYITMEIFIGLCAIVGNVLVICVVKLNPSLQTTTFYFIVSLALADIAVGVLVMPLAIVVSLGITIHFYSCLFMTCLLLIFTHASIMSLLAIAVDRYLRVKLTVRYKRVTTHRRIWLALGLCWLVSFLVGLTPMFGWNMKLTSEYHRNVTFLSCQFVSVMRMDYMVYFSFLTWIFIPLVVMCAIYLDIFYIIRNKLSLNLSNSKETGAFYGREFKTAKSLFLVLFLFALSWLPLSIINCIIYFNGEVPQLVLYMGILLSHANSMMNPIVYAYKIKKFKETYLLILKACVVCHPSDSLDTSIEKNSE
experimental readout: EC50

The following compounds have reported results that may help.
Cc1nccn1-c1sc(Nc2nc[nH]n2)nc1-c1cccc(C#N)c1 [Compound 9] : 2.35 µM
N#Cc1cccc(-c2nc(Nc3n[nH]c(C4CC4)n3)sc2-c2ccnnc2)c1 [Compound 25] : > 30 µM
CCc1nc(Nc2nc(-c3cccc(C#N)c3)c(-n3ccnc3CO)s2)n[nH]1 [Compound 20] : > 30 µM

q: Kindly state the measured EC50 obtained for Cc1cnccc1-c1sc(Nc2nc[nH]n2)nc1-c1cccc(C#N)c1 [Compound 22] with human A3 receptor (Homo sapiens (Human), UniProt P0DMS8).
a: > 30 µM

meta.source: patent US20250101013A1
